Tested on: biotinyl-Leu-oxazolone
Assay: self-aminoacylation, catalytic enhancement (BLO) (fold over background); higher = more active; k-Seq, kA / k0A0; sequences stand for … in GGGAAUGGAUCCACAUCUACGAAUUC…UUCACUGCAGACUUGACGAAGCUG
This sample holds only a part of the variants without activity.
// thresholds for self-aminoacylation classes: low range = under 1, mid range = from 1 up to 2, high range = 2 and over

[Q] Assign a bin to AUAACCCUGGUCCUCGAGUGA [Fam2.1 aminoacylation ribozyme variant]
[A] high range

[Q] Determine which band this sequence sits in: AAGUUUGCCAAUAGUCGCAUG [Fam3.1 aminoacylation ribozyme variant]
[A] mid range

[Q] Band assignment needed for CUACUUUCAACAAUCGGUCUG [Fam1A.1 aminoacylation ribozyme variant] please.
[A] mid range

[Q] Into which category would you place CCACACUUCAAGUAAUCGGGC [Fam1B.1 aminoacylation ribozyme variant] ?
[A] mid range

[Q] Just checking, what class would you give AACUUUGAUAAUAGUCGCAAG [Fam3.1 aminoacylation ribozyme variant] here?
[A] mid range

[Q] Place this sequence in its band: AUACUUCCAACAAUCGGUCUG [Fam1A.1 aminoacylation ribozyme variant]
[A] low range

[Q] The entry to classify is AAGUUUGUUAAUAGGCGCAAG [Fam3.1 aminoacylation ribozyme variant] ; which class holds it?
[A] low range

[Q] Which class holds CUCCUUCAAAUAAUCGGUCUG [Fam1A.1 aminoacylation ribozyme variant] ?
[A] mid range

[Q] Please indicate the class for GUACUUCAAACAAUCGGUCGG [Fam1A.1 aminoacylation ribozyme variant] based on its self-aminoacylation.
[A] high range

[Q] Which self-aminoacylation band matches AAGUUUGCUAAGAGUCGCAAU [Fam3.1 aminoacylation ribozyme variant] ?
[A] mid range

[Q] # classify by self-aminoacylation band: CCACACUUCAUGCAAACGGUC [Fam1B.1 aminoacylation ribozyme variant]
[A] low range

[Q] Band for the recorded self-aminoacylation of AUUACCCUGGUCAUGGGGUGA [Fam2.1 aminoacylation ribozyme variant] ?
[A] high range

[Q] Which band does AUUGACCUAGGUCAUCGUGUG [Fam2.2 aminoacylation ribozyme variant] fall in?
[A] mid range

* * *

What self-aminoacylation was measured for each of the following?
Test system: biotinyl-Met-oxazolone
Experiment: self-aminoacylation, catalytic enhancement (BMO) (fold over background); higher = more active; k-Seq, kA / k0A0; sequences stand for … in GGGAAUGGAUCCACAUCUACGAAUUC…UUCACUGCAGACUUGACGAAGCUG
This sample holds only a part of the variants without activity.
Please reply with the value in numeric form only.

[Q] Return value of self-aminoacylation for input AUUACCCCGGUCAUUGAGUGA [Fam2.1 aminoacylation ribozyme variant] , no commentary.
[A] 7.29

[Q] Give the measured self-aminoacylation for AAGUUUGCUAAAGGUCGCAAG [Fam3.1 aminoacylation ribozyme variant]
[A] 0.931

[Q] // fetch self-aminoacylation given entry AUUCACCUCGGUCAUCUGGUG [Fam2.2 aminoacylation ribozyme variant]
[A] 3.29

[Q] # return recorded self-aminoacylation for input AUAACCCUGGUUAUCGAGUGA [Fam2.1 aminoacylation ribozyme variant]
[A] 8.37

[Q] Please give the documented self-aminoacylation of AUUUAUCUAGGUCAUCGGGUG [Fam2.2 aminoacylation ribozyme variant]
[A] 3.91

[Q] Supply recorded self-aminoacylation for AUUACCCUGGUCAUUGGGUGA [Fam2.1 aminoacylation ribozyme variant] here.
[A] 12.1

[Q] Item AUUGACCUAGGUCAUCGGGUA [Fam2.2 aminoacylation ribozyme variant] : provide self-aminoacylation
[A] 47.1

[Q] Given the sequence CUACUUCAAACAAGCGCUCUG [Fam1A.1 aminoacylation ribozyme variant] , write its reported self-aminoacylation.
[A] 0.654

[Q] Determine its reported self-aminoacylation: AAGUUUGCUAAUAGUCGCUAU [Fam3.1 aminoacylation ribozyme variant]
[A] 1.26

[Q] Could you please provide reported self-aminoacylation for CUACUCCAAACCAUCGGUCUG [Fam1A.1 aminoacylation ribozyme variant] ? Thanks!
[A] 0.961

[Q] Kindly indicate its recorded self-aminoacylation. Item: CCACUUCGAACAAUCGGUCUG [Fam1A.1 aminoacylation ribozyme variant]
[A] 1.77

[Q] Input CUACUUCAAACAUUCGGUAUG [Fam1A.1 aminoacylation ribozyme variant] , output reported self-aminoacylation.
[A] 0.993

[Q] Assign self-aminoacylation to the following record: AUUAGCCAGGUCAUCGAGUGA [Fam2.1 aminoacylation ribozyme variant]
[A] 5.35

[Q] Determine from records and report self-aminoacylation for ACACACUUCAACCAAUCGGUC [Fam1B.1 aminoacylation ribozyme variant]
[A] 1.65

[Q] Using the record for AUUGACCUAGGUCAUCCGGUG [Fam2.2 aminoacylation ribozyme variant] , state its measured self-aminoacylation.
[A] 4.88

[Q] Specify reported self-aminoacylation for the sequence shown: CCACACUUCAGUCAAUCGGUC [Fam1B.1 aminoacylation ribozyme variant]
[A] 1.02

[Q] Provide only the value of recorded self-aminoacylation for CUAUAUCAAACAAUCGGUCUG [Fam1A.1 aminoacylation ribozyme variant]
[A] 0.561

[Q] Fill in self-aminoacylation for record AAGUUCGCUAAUAGUCACAAG [Fam3.1 aminoacylation ribozyme variant]
[A] 1.56

[Q] Identify self-aminoacylation associated with the sequence AAGUUUGCUUAUAGUCGCCAG [Fam3.1 aminoacylation ribozyme variant]
[A] 0.883

[Q] Supply recorded self-aminoacylation for CCACACGUCAAGCAAUCGGAC [Fam1B.1 aminoacylation ribozyme variant] here.
[A] 1.14

[Q] Output self-aminoacylation of AUUACCCUGAGCAUCGAGUGA [Fam2.1 aminoacylation ribozyme variant]
[A] 4.43

[Q] Fill in reported self-aminoacylation for this entry: AUUCCCCUAGGUCAUCGGGUG [Fam2.2 aminoacylation ribozyme variant]
[A] 24.4

[Q] Read the entry AUUCACCUAGGUGAUCGGUUG [Fam2.2 aminoacylation ribozyme variant] and write its reported self-aminoacylation.
[A] 0.928

[Q] Provide one value: measured self-aminoacylation of CUACUUCCAACAAUCGGUCAG [Fam1A.1 aminoacylation ribozyme variant]
[A] 0.62

[Q] In one line, give reported self-aminoacylation of the entry CCUCACUUCAAACAAUCGGUC [Fam1B.1 aminoacylation ribozyme variant] .
[A] 1.51

[Q] Return self-aminoacylation (reported value) for this sequence: AAGUUUGCUAAGAGUGGCAAG [Fam3.1 aminoacylation ribozyme variant]
[A] 0.955

[Q] Look up self-aminoacylation of CAACACUUCAAGCAAUCGGUG [Fam1B.1 aminoacylation ribozyme variant] and report it.
[A] 4.13

[Q] State, in one line, measured self-aminoacylation of AUUCACGUAGGUGAUCGGGUG [Fam2.2 aminoacylation ribozyme variant]
[A] 3.98

[Q] Answer with reported self-aminoacylation of AAGCUAGCUAAUAGUCGCAAG [Fam3.1 aminoacylation ribozyme variant]
[A] 1.36

The reported measurements were obtained from the supplement of paper PMC9233669.
